Entry source: PubChem BioAssay AID651849

# targetOrSystem: Photoreceptor-specific nuclear receptor (Homo sapiens) (UniProt Q9Y5X4)
# Sequence (Q9Y5X4 whole entry, looked up): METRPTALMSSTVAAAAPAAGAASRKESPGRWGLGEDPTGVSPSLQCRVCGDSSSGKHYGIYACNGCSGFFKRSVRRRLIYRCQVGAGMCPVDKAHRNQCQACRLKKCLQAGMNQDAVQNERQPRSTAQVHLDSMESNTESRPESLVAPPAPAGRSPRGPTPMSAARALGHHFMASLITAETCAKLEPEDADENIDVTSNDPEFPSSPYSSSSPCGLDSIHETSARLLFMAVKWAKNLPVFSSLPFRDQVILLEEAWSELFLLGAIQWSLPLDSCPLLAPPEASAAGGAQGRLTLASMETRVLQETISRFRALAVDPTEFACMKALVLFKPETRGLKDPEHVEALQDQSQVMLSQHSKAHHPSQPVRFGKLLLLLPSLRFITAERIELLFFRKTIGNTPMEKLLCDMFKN
# assayProcedure: agonist-induced NR2E3-NCOR dissociation – cell-based, luminescence, CHO-S two-hybrid, late stage, dose response (AID 651849)
# statedConditions: CHO-S Gal4-NCOR/VP16-NR2E3 two-hybrid, luciferase
quantity: pIC50
# pIC50 = -log10(concentration in molar units)

Here is how some compounds turned out for pIC50.
[in] Need pIC50 of Cc1ccnc(NC(=O)CSc2cc(=O)n(C)c3ccccc23)c1 , thanks.
[out] 5.84

[in] So what does the record say about pIC50 for O=c1cc(N2CCN(c3cccc(Cl)c3)CC2)[nH]c(=O)n1C1CCCCC1 ?
[out] 7.14

[in] For the compound shown here, O=C(Nc1cccc(NC(=O)c2c(F)cccc2F)n1)c1c(F)cccc1F , give the reported pIC50.
[out] 5.10

Further cases:
[in] Data request, read-out pIC50, for O=C(CSc1nnnn1-c1ccc(O)cc1)Nc1ccc(N2CCOCC2)c(Cl)c1
[out] 5.90

[in] Param item = Cc1cc(C)cc(NC(=O)CCc2nc3sc4c(c3c(=O)[nH]2)CCCC4)c1 ; retrieve measured pIC50.
[out] 6.60

[in] What value of pIC50 has been reported for the following compound? COc1cccc(NC(=O)CSc2nc3ncc(Br)cc3[nH]2)c1
[out] 5.45

[in] Consider the compound shown here: Cc1cnc(NC(=O)CCCc2nc3ccccc3s2)s1 What is its recorded pIC50?
[out] 6.02

----------
# targetOrSystem: Photoreceptor-specific nuclear receptor (Homo sapiens) (UniProt Q9Y5X4)
# assayProcedure: agonist-induced NR2E3-NCOR dissociation – cell-based, luminescence, CHO-S two-hybrid, late stage, dose response (AID 651849)
# statedConditions: CHO-S Gal4-NCOR/VP16-NR2E3 two-hybrid, luciferase
quantity: IC50

[in] Provide the documented IC50 with Photoreceptor-specific nuclear receptor (Homo sapiens) (UniProt Q9Y5X4) as the system for COc1cc2nc(CN3CC=C(c4ccccc4)CC3)[nH]c(=O)c2cc1OC
[out] 393 nM

[in] Give Photoreceptor-specific nuclear receptor (Homo sapiens) (UniProt Q9Y5X4) IC50 for Cc1ccc(-c2nc(NC(=O)CSc3nnnn3-c3ccccc3)ns2)cc1
[out] 404 nM

[in] Form: Entry = Cc1onc(-c2ccccc2Cl)c1C(=O)Nc1nc2c(s1)CCCC2 | System = Photoreceptor-specific nuclear receptor (Homo sapiens) (UniProt Q9Y5X4) | IC50 = ____
[out] 597 nM

Shifting focus to the molecule that follows.
[in] Request: IC50, test system Photoreceptor-specific nuclear receptor (Homo sapiens) (UniProt Q9Y5X4), entry COc1ccc(S(=O)(=O)N2CCCCC2)cc1NC(=S)Nc1cccc(Cl)c1C
[out] 1500 nM

----------
# targetOrSystem: Photoreceptor-specific nuclear receptor (Homo sapiens) (UniProt Q9Y5X4)
# assayProcedure: agonist-induced NR2E3-NCOR dissociation – cell-based, luminescence, CHO-S two-hybrid, late stage, dose response (AID 651849)
# statedConditions: CHO-S Gal4-NCOR/VP16-NR2E3 two-hybrid, luciferase
# Lookup of reported IC50 keyed by entry

Record excerpt, results attached:
[in] Need IC50 of COc1ccc(S(=O)(=O)N2CCCCC2)cc1NC(=S)Nc1ccccc1 , thanks.
[out] 2630 nM

[in] Param item = Cc1ccc(NC(=O)CSc2nnnn2-c2ccc3c(c2)OCO3)cc1C ; retrieve measured IC50.
[out] 566 nM

[in] I would be grateful if you could share the reported IC50 for COc1ccc2c(CC(=O)Nc3ncc(C)s3)coc2c1 .
[out] 1920 nM

[in] Can you look up the measured IC50 of Cc1cccc(OCCCC(=O)Nc2nc3ccccc3[nH]2)c1 for me?
[out] 5300 nM

Further cases:
[in] What does the data say about its IC50? Entry: O=C(CSc1nnnn1-c1ccc2c(c1)OCCO2)Nc1nc2c(s1)CCCC2
[out] 682 nM

----------
# targetOrSystem: Photoreceptor-specific nuclear receptor (Homo sapiens)
# assayProcedure: agonist-induced NR2E3-NCOR dissociation – cell-based, luminescence, CHO-S two-hybrid, late stage, dose response (AID 651849)
# statedConditions: CHO-S Gal4-NCOR/VP16-NR2E3 two-hybrid, luciferase
Items are presented alongside their recorded pIC50.
Scale: negative log10 of molar concentration, which is what pIC50 denotes.

Example entries begin here.
[in] Name the recorded pIC50 for Cc1cnc(NC(=O)Cc2ccc(Br)cc2)s1 .
[out] 5.65

[in] What does the record list as pIC50 for COc1ccc(OC)c(NC(=O)CSc2nnnn2-c2ccc3c(c2)OCO3)c1 ?
[out] 6.52

[in] Returns the measured pIC50 for the input molecule. Input: Cc1ccc(CN2CC(C(=O)Nc3ncc(C)s3)CC2=O)cc1 (centres undefined)
[out] 6.29

Pending molecule:
[in] Dear colleague, I am looking for the recorded pIC50 of the following molecule: O=C(O)CC1(CC(=O)Nc2cc(C(F)(F)F)cc(C(F)(F)F)c2)CCCCC1
[out] 5.40
